assay: Plasma concentration in cynomolgus monkey at 0.3 mg/kg, po qd administered via gavage for 14 days measured after 5 hrs of last-dose by LC/MS/MS analysis; format: ADME, organism-based, Macaca fascicularis
observed_property: concentration at 5 h
Form entry: enter the amount, then its unit.

stdin: GET /values?readout=concentration at 5 h&item= CC(C)(O)c1cn(-c2ccc(-c3cc(F)c(CO)c(S(C)(=O)=O)c3)cc2F)c(C(C)(C)c2c(Cl)cccc2Cl)n1 [BMS-852927]
stdout: 22 nM

----------
biological target: Oxysterols receptor LXR-beta (Homo sapiens); experiment: Agonist activity at LXR-beta in human HeLa cells assessed as induction of ABCA1 by beta-galactosidase/luciferase reporter gene assay relative to control; type: cell-based
observed_property: Efficacy (%)
// return numeric value only (unit: %, not printed)

These recorded examples may help you get a feel for the data.
CC(C)(O)c1cn(-c2ccc(-c3cc(F)c(CO)c(S(C)(=O)=O)c3)cc2F)c(C(C)(C)c2c(F)cccc2Cl)n1 30
CC(C)(O)c1cn(-c2ccc(-c3ccc(CO)c(S(C)(=O)=O)c3)cc2)c(Cc2ccccc2Cl)n1 54
CC(C)(O)c1cn(-c2ccc(-c3cc(F)c(CO)c(S(C)(=O)=O)c3)cc2F)c(C(C)(C)c2ccccc2Cl)n1 29

stdin: State the recorded Efficacy for this entry: `CC(C)(O)c1cn(-c2ccc(-c3cc(F)c(CO)c(S(C)(=O)=O)c3)cc2)c(Cc2c(Cl)cccc2Cl)n1`
stdout: 43

----------
biological target: UniProtKB Q13133; experiment: Agonist activity at human LXR-alpha expressed in African green monkey CV1 cells measured after 18 to 20 hrs by luciferase reporter gene assay relative to pan agonist 1-(2,4-difluorobenzyl)-2-oxo-6-(4-phenoxyphenyl)-4-(trifluoromethyl)-1,2-dihydropyridine-3-carbonitrile; type: cell-based; conditions: CV-1, human; read-out: Efficacy
Sequence (Q13133 whole entry): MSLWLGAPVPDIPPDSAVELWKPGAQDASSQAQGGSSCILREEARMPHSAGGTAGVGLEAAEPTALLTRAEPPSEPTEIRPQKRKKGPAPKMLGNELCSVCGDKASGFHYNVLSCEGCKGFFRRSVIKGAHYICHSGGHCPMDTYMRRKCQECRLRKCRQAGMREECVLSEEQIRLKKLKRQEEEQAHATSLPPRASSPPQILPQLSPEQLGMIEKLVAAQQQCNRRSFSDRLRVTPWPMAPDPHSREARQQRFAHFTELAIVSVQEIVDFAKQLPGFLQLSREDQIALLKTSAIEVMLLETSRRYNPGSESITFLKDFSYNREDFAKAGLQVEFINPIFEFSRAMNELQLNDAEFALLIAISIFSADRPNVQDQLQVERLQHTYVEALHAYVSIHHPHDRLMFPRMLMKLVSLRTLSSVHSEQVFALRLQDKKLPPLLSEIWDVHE
This listing pairs compounds with measured Emax.
The reply should be a number in %, with the unit left off.

Here is how some compounds turned out for Emax.
compound	recorded_number
CC(C)(O)c1cn(-c2ccc(-c3cccc(S(C)(=O)=O)c3)cc2)c(C(C)(C)c2ccccc2Cl)n1 [BMS-779788]	38
CC(C)(O)c1cn(-c2ccc(-c3cc(F)c(CO)c(S(C)(=O)=O)c3)cc2)c(C(C)(C)c2cccc(F)c2Cl)n1	12
CC(C)(O)c1cn(-c2ccc(-c3cc(F)c(CO)c(S(C)(=O)=O)c3)cc2)c(C(C)(C)c2c(Cl)cccc2Cl)n1	25
CC(C)(O)c1cn(-c2ccc(-c3ccc(CO)c(S(C)(=O)=O)c3)cc2)c(Cc2ccccc2Cl)n1	39
CC(C)(O)c1cn(-c2ccc(-c3cccc(S(C)(=O)=O)c3)cc2)c(C(C)(C)c2c(Cl)cccc2Cl)n1	20
CC(c1c(Cl)cccc1Cl)c1nc(C(C)(C)O)cn1-c1ccc(-c2cc(F)c(CO)c(S(C)(=O)=O)c2)cc1F (stereo not drawn)	18
CC(C)(O)c1cn(-c2ccc(-c3ccc(CO)c(S(C)(=O)=O)c3)cc2)c(C(C)(C)c2ccccc2Cl)n1	46

Moving on to another compound below.
stdin: # query: Emax | item `CC(C)(O)c1cn(-c2ccc(-c3cc(F)c(CO)c(S(C)(=O)=O)c3)cc2F)c(C(C)(C)c2ccccc2Cl)n1` | system: UniProtKB Q13133
stdout: 25

----------
assay: Binding affinity to dog alpha-1-AGP at 1 uM measured after 4 hrs by equilibrium dialysis method relative to control; format: ADME, Canis lupus familiaris; conditions: dog alpha-1-acid glycoprotein, read-out: PB (converted)
observed_property: fraction unbound at 4 h, 1 µM
Answer as a number with no unit attached.

stdin: Quick check: fraction unbound at 4 h, 1 µM of CC(C)(O)c1cn(-c2ccc(-c3cccc(S(C)(=O)=O)c3)cc2)c(C(C)(C)c2ccccc2Cl)n1 [BMS-779788] ?
stdout: 0.02
